- Target: DNA gyrase (Escherichia coli, UniProt P0AES4+P0AES6)
- Construct: purchased Inspiralis, UK
- Test summary: DNA gyrase supercoiling assay (E. coli)
- Assay type: biochemical
- Run conditions: single concentration (200, 100 or 50 μM), in duplicate, versus the positive control (vehicle)
Where a name gives a salt, the structure may show the parent alone.
Metric: % inhibition DNA gyrase
Report the figure along with its unit, number first.

O=C(NCCCN1CCN(c2nccc3ccccc23)CC1)c1ccccc1 [Compound 3, hydrochloride] :: 59%

Exam item: Given the compound O=c1cc(NC[C@@H](O)[C@@H](O)C2CCN(c3nccc4ccc(F)cc34)CC2)c2ccccc2o1 (racemic) [Compound 129, hydrochloride] , what is its reported % inhibition DNA gyrase?
Marked response: 69%

Exam item: Given the compound Cc1cccc2oc(=O)cc(NCCCN3CCN(c4nccc5ccc(F)cc45)CC3)c12 [Compound 96, hydrochloride] , what is its reported % inhibition DNA gyrase?
Marked response: 88%
